Molecular target: T1, Nbp2, Q12163
T1 sequence (Q12163 103-180, looked up): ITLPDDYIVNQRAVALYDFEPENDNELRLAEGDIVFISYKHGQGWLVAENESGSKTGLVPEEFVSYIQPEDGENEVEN
Assay: SPOT array
Conditions: median of control spots 357
Recorded Metric: SPOT intensity

Binder	Assay Value
VNFRRIPTGPDSPPT	0

a = KDKSRPPRPPPKPLH
b = SKAKRPKFLLDLQIK
c = LKVTPGRRAPTISKI
Exam item: // ascending sort on recorded SPOT intensity Write out the labels following the order that was asked for.
Marked response: b, a, c
